STUDY_TARGET: human alpha 2A receptor (Homo sapiens)
Sequence (P08913 whole entry): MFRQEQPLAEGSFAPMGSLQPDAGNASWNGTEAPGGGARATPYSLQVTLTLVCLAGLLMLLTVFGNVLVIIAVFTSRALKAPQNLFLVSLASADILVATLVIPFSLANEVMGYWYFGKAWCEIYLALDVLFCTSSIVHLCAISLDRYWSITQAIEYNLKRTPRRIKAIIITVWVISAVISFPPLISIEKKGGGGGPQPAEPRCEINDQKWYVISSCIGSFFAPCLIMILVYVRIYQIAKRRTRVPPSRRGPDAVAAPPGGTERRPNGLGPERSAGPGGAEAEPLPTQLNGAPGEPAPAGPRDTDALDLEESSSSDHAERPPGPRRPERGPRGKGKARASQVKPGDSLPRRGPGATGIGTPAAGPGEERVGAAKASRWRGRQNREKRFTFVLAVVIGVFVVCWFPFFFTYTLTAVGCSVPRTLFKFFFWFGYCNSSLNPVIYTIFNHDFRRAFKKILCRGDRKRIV
ASSAY_INFO: FLIPR Ca+2 influx antagonist assay, alpha 2A
PARTICULARS: HEK 293 cells, Gqi5; antagonism of norepinephrine calcium signal
REPORTED_ENDPOINT: IC50 (nM)
Number only, in nM; omit the unit.

### Prompt # get_value(readout='IC50', item= CN1CCc2c(C#N)c(N)n(C)c(=S)c2C1 [Example 5] )
### Response 1990

====

STUDY_TARGET: Alpha 1B adrenergic receptor (Homo sapiens)
Sequence (P35368 whole entry): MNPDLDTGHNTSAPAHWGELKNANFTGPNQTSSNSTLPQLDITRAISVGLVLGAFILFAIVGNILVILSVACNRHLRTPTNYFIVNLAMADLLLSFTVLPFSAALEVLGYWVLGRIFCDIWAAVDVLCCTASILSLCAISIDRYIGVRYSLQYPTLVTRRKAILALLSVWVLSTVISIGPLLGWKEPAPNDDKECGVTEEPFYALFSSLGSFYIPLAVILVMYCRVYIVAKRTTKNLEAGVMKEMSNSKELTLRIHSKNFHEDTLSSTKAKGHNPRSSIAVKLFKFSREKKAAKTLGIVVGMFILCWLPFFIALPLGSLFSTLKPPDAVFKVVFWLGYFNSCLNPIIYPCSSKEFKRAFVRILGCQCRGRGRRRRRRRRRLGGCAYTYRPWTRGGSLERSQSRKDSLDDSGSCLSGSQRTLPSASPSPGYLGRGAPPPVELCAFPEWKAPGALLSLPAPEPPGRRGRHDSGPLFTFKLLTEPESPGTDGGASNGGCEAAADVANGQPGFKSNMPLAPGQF
ASSAY_INFO: FLIPR Ca+2 influx antagonist assay, alpha 1B
Type: cell-based
PARTICULARS: antagonism of norepinephrine calcium signal; read-out: IC50 Alpha 1B
pIC50: −log10 of the molar value.
REPORTED_ENDPOINT: pIC50

### Prompt GET /values?readout=pIC50&system=Alpha 1B adrenergic receptor (Homo sapiens)&item= `CN1CCc2c(C#N)c(N)n(N)c(=S)c2C1`
### Response < 5.12

====

STUDY_TARGET: human alpha 2C receptor (Homo sapiens, UniProt P18825)
Sequence (P18825 whole entry): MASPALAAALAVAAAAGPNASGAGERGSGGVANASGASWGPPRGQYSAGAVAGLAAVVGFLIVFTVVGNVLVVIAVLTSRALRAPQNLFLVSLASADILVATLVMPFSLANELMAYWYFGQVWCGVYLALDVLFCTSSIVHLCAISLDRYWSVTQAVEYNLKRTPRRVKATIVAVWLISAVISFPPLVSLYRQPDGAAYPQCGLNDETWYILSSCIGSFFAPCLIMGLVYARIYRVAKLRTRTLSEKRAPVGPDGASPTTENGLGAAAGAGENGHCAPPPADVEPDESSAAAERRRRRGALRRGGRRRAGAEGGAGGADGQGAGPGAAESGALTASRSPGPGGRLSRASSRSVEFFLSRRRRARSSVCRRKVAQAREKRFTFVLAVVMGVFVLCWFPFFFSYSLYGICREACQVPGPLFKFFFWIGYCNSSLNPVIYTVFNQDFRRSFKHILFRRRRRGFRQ
ASSAY_INFO: FLIPR Ca+2 influx antagonist assay, alpha 2C
PARTICULARS: HEK 293 cells, Gqi5; antagonism of norepinephrine calcium signal
REPORTED_ENDPOINT: pIC50
Please express pIC50 as -log10 of the molar concentration.

### Prompt # get_value(readout='pIC50', item= `CN1CCc2c(C#N)c(N)n(N)c(=S)c2C1` )
### Response 5.85

====

Let's look at some compounds and their measured IC50.
STUDY_TARGET: mouse alpha2B receptor (Mus musculus, UniProt P30545)
Construct: expressed in transfected cells; host or cells: HEK 293
Sequence (P30545 1-453): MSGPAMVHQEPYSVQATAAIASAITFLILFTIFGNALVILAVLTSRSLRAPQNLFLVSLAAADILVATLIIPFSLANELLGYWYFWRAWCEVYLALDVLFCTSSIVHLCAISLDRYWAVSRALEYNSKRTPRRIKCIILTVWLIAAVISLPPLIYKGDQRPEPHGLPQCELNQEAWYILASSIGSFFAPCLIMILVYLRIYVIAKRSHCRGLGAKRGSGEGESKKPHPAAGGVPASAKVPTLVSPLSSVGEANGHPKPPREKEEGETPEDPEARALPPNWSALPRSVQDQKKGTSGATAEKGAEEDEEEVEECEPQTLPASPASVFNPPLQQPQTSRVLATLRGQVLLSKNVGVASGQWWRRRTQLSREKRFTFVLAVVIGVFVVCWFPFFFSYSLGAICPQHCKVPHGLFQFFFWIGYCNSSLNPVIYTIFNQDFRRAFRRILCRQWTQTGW
ASSAY_INFO: FLIPR Ca+2 influx antagonist assay, alpha 2B
Type: cell-based
PARTICULARS: HEK 293 cells, G16; antagonism of norepinephrine calcium signal; read-out: IC50 Alpha 2B
# output: number + unit

Some compounds with known IC50 results, for comparison:
>  <COMPOUND>
CN1CCc2c(C#N)c(N)n(N)c(=S)c2C1 [Example 6]

>  <STUDY_TARGET>
mouse alpha2B receptor (Mus musculus, UniProt P30545)

>  <IC50>
204 nM

$$$$
>  <COMPOUND>
Cn1c(N)c(C#N)c2c(c1=S)CNCC2 [Example 4]

>  <STUDY_TARGET>
mouse alpha2B receptor (Mus musculus, UniProt P30545)

>  <IC50>
342 nM

$$$$
>  <COMPOUND>
CN1CCc2c(C#N)c(N)n(C)c(=O)c2C1 [Example 9]

>  <STUDY_TARGET>
mouse alpha2B receptor (Mus musculus, UniProt P30545)

>  <IC50>
1170 nM

$$$$

### Prompt # get_value(readout='IC50', item= CCn1c(N)c(C#N)c2c(c1=S)CN(C)CC2 [Example 8] )
### Response 473 nM
